- Tested on: anti collagen antibodies induced arthritis (ACAIA)
- protocolDescription: Anti collagen antibodies induced arthritis (ACAIA) in mice, intra-articular treatment: paw thickness, arthritis clinical score, body weight;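 also: mouse arthritis induced by IV anti-collagen mAb on day 0 plus IP LPS on day 4, with body weight, caliper paw thickness and 0-4 paw score tracked against a day 0 baseline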
- conditionDetails: BETi1 10 mg/kg IA (Group 2); Av
attributeMeasured: Weight per day, Day 3
In your response, put the unit directly after the numeric value.

Tell me measured Weight per day, Day 3 for Cn1cc(-c2cccc(O)c2Oc2ccccc2)c2cc[nH]c2c1=O [BETi1] please.
21.4 g

* * *

- protocolDescription: Toxicokinetics in dogs after intra-articular injection: plasma concentrations
- Format: in vivo, Beagle dogs
- conditionDetails: both sexes, Beagle, dog, plasma, other: intra-articular injection, 150 mg/animal; 150 mg intra-articular; 672 h; read-out: Plasma concentration of BETi1
attributeMeasured: concentration at 672 h
Dear colleague, please send the value followed by its unit.

Please give measured concentration at 672 h of the following entry: `Cn1cc(-c2cccc(O)c2Oc2ccccc2)c2cc[nH]c2c1=O`
1.72 ng/mL
